Give Response Threshold (g) 1 hr for every item shown.
System: L5/L6 spinal nerve ligation (SNL) rats, mechanical hyperalgesia
Experiment: L5/L6 Spinal Nerve Ligation (SNL) Chung pain model, assessment of mechanical hyperalgesia (digital Randall-Selitto)
Format: in vivo, male Sprague-Dawley rats
Settings: 30 mg/kg, p.o., 1 hr after administration
Value and unit, in that order.

Response Threshold (g) 1 hr on L5/L6 spinal nerve ligation (SNL) rats, mechanical hyperalgesia for "O=C1CNCCN1Cc1nc2cc(C(F)(F)F)cc(C(F)(F)F)c2[nH]1" is 100.6 g

Response Threshold (g) 1 hr on L5/L6 spinal nerve ligation (SNL) rats, mechanical hyperalgesia for "CC(C)(N)C(=O)NCc1nc2cc(C(F)(F)F)cc(C(F)(F)F)c2[nH]1" is 87.8 g

Response Threshold (g) 1 hr on L5/L6 spinal nerve ligation (SNL) rats, mechanical hyperalgesia for "NCC(=O)NCc1nc2cc(C(F)(F)F)cc(C(F)(F)F)c2[nH]1" is 84.0 g

Response Threshold (g) 1 hr on L5/L6 spinal nerve ligation (SNL) rats, mechanical hyperalgesia for "FC(F)(F)c1cc(C(F)(F)F)c2nc(CC3CNC3)[nH]c2c1" is 93.8 g

Response Threshold (g) 1 hr on L5/L6 spinal nerve ligation (SNL) rats, mechanical hyperalgesia for "CC(C)C[C@H](CN)Cc1nc2c(C(F)(F)F)cc(C(F)(F)F)cc2[nH]1" is 107.9 g

Response Threshold (g) 1 hr on L5/L6 spinal nerve ligation (SNL) rats, mechanical hyperalgesia for "CC(C)(N)Cc1nc2cc(C(F)(F)F)cc(C(F)(F)F)c2[nH]1" is 104.5 g

Response Threshold (g) 1 hr on L5/L6 spinal nerve ligation (SNL) rats, mechanical hyperalgesia for "CNCc1nc2cc(C(F)(F)F)cc(C(F)(F)F)c2[nH]1" is 99.6 g

Response Threshold (g) 1 hr on L5/L6 spinal nerve ligation (SNL) rats, mechanical hyperalgesia for "CN(Cc1nc2cc(C(F)(F)F)cc(C(F)(F)F)c2[nH]1)S(N)(=O)=O" is 110.8 g

Response Threshold (g) 1 hr on L5/L6 spinal nerve ligation (SNL) rats, mechanical hyperalgesia for "NCCc1nc2cc(C(F)(F)F)cc(C(F)(F)F)c2[nH]1" is 113.6 g

====

Test system: L5/L6 spinal nerve ligation (SNL) rats, mechanical hyperalgesia
Assay: L5/L6 Spinal Nerve Ligation (SNL) Chung pain model, assessment of mechanical hyperalgesia (digital Randall-Selitto)
Format: in vivo, male Sprague-Dawley rats
Conditions: Rattus norvegicus, po, 30 mg/kg, p.o., 1 hr after administration, read-out: % Reversal 1 hr
Give inhibition in vivo at 30 mg/kg for every item shown.
Give a bare numeral; the unit % is implied.

For record "CNCc1nc2cc(C(F)(F)F)cc(C(F)(F)F)c2[nH]1" the listed inhibition in vivo at 30 mg/kg is 13.8

For record "O=C1CNCCN1Cc1nc2cc(C(F)(F)F)cc(C(F)(F)F)c2[nH]1" the listed inhibition in vivo at 30 mg/kg is 14.6

For record "CN(Cc1nc2cc(C(F)(F)F)cc(C(F)(F)F)c2[nH]1)S(N)(=O)=O" the listed inhibition in vivo at 30 mg/kg is 19.8

For record "CC(C)C[C@H](CN)Cc1nc2c(C(F)(F)F)cc(C(F)(F)F)cc2[nH]1" the listed inhibition in vivo at 30 mg/kg is 17.2

For record "CC(C)(N)C(=O)NCc1nc2cc(C(F)(F)F)cc(C(F)(F)F)c2[nH]1" the listed inhibition in vivo at 30 mg/kg is -0.5

For record "NCC(=O)NCc1nc2cc(C(F)(F)F)cc(C(F)(F)F)c2[nH]1" the listed inhibition in vivo at 30 mg/kg is 0.8

For record "FC(F)(F)c1cc(C(F)(F)F)c2nc(CC3CNC3)[nH]c2c1" the listed inhibition in vivo at 30 mg/kg is 9.2

For record "CC(C)(N)Cc1nc2cc(C(F)(F)F)cc(C(F)(F)F)c2[nH]1" the listed inhibition in vivo at 30 mg/kg is 15.3

For record "NCCc1nc2cc(C(F)(F)F)cc(C(F)(F)F)c2[nH]1" the listed inhibition in vivo at 30 mg/kg is 22.4
